These data points were gathered from ChEMBL document CHEMBL1126713.

# inhibition listing for each entry below
target: Type-1 angiotensin II receptor B (Rattus norvegicus); assay: Binding affinity against angiotensin II (AT1 receptor) from rat liver expressed as % inhibition at 10 e -7 M

compound | measured.target | inhibition, %
CCCCc1nc(Cl)c(C(=O)OC)n1Cc1ccc(NC(=O)[C@H](Cc2cccs2)n2cccc2)cc1 | Type-1 angiotensin II receptor B (Rattus norvegicus) | 2.5
CCCCc1nc(Cl)c(C(=O)OC)n1Cc1ccc(NC(=O)[C@H](Cc2cccs2)n2cccc2C(=O)OC)cc1 | Type-1 angiotensin II receptor B (Rattus norvegicus) | 11
CCCCc1nc(Cl)c(CO)n1Cc1ccc(NC(=O)[C@H](Cc2ccccc2)n2cccc2)cc1 | Type-1 angiotensin II receptor B (Rattus norvegicus) | 8.1
CCCCc1nc(Cl)c(CC(=O)OC)n1Cc1ccc(NC(=O)[C@H](Cc2ccccc2)n2cccc2C)cc1 | Type-1 angiotensin II receptor B (Rattus norvegicus) | 14.8
CCCCc1ncc(C(=O)OC)n1Cc1ccc(NC(=O)[C@H](Cc2ccccc2)n2cccc2C(=O)OC)cc1 | Type-1 angiotensin II receptor B (Rattus norvegicus) | 33
CCCCc1nc(Cl)c(C(=O)OC)n1Cc1ccc(NC(=O)[C@H](Cc2ccccc2)n2cccc2C(=O)OC)cc1 | Type-1 angiotensin II receptor B (Rattus norvegicus) | 15
CCCCc1nc(Cl)c(CC(=O)OC)n1Cc1ccc(NC(=O)[C@H](Cc2ccccc2)n2ccc(C(=O)OCC)c2)cc1 | Type-1 angiotensin II receptor B (Rattus norvegicus) | 7.2
CCCCc1nc(Cl)c(CC(=O)O)n1Cc1ccc(NC(=O)CCc2ccccc2)cc1 | Type-1 angiotensin II receptor B (Rattus norvegicus) | 7.8
